tested on: HS 578T breast; test: NCI-60 one-dose screen, 48 h; conditions: 10 µM unless noted
The panel holds about 83,000 compounds, 20% with a hit somewhere; the sample as a whole holds those more often. Active and inactive are the calls of the source. Rule for the calls: active = growth percent below 10; inactive = the rest.
Classes used: Yes = active, No = inactive

molecule	cat
NS(=O)(=O)c1ccc(NC(=O)/C(=C\c2ccc(Cl)cc2Cl)NC(=O)c2ccccc2)cc1	No
CCN(CC)Cc1cc(Nc2ccnc3cc(Cl)ccc23)ccc1O	No
O=C(NNc1cnccn1)c1nc2cc(F)ccc2n2cccc12	No
NS(=O)(=O)c1ccc(C(=O)NN2C(=O)c3c(Br)c(Br)c(Br)c(Br)c3C2=O)cc1	No
COc1ccc(CCN(CC(=O)N(CC(N)=O)C2CCC[C@@H]2OCc2ccccc2)C(=O)CN(C(=O)CN(CCc2ccc(Cl)cc2)C(=O)CN(C(=O)CN(C)Cc2ccccc2F)[C@H](C)C2CCCCC2)[C@H](C)C2CCCCC2)cc1OC (some centres undefined)	No
COc1ccc(/C=C/C(=O)c2cc3c(N)c(C(=O)Nc4cccc(Cl)c4C)sc3nc2C)cc1	Yes
CCN1CCN(CC(=O)Nc2ccc(-c3cn4c(n3)sc3cc(Oc5ccnc(C(=O)NC)c5)ccc34)cc2)CC1	No
COc1ccc(-c2ccc(-c3ccc(C(=N)N)nc3)s2)cc1Cl	Yes
NS(=O)(=O)c1ccc(-c2cc(-c3nnc(SCC(=O)Nc4ccc(C(=O)/C=C/c5ccc(Cl)cc5)cc4)n3-c3ccccc3)c3ccccc3n2)cc1	No
Ic1ccccc1I	No
CNC(=O)c1ccccc1Nc1nc(Nc2cc(OC)c(OC)c(OC)c2)ncc1Br	Yes
COC(=O)c1c2c(c(C)[n+]([O-])c1C)C(=O)C(NCc1ccc(OC)cc1)=CC2=O	No
CCOC(=O)c1ccccc1-c1c2ccc(=[N+](C)C)cc-2oc2cc(N(C)C)ccc12	No
O=S1(=O)C=C(c2ccccc2)C(c2ccccc2)=C1	Yes

====

system: HOP-92 NSCLC; assay: NCI-60 one-dose screen, 48 h; conditions: 10 µM unless noted
The panel holds about 83,000 compounds, 20% with a hit somewhere; the sample as a whole holds those more often. Active and inactive are the calls of the source. The calls were made as follows: active = growth percent below 10; inactive = the rest.
Outcome codes: active, inactive

> print(dat)
                               smilesstring       cat
1  O=c1cc(-c2ccccc2)[nH]c2ncc(-c3ccc(F)cc3)n12  inactive
2  CNC(=O)c1cc(Oc2cccc3nc(NC(=O)Nc4cc(C(F)(F)F)ccc4Cl)ccc23)ccn1  inactive
3  O=S(=O)(Nc1cc(Sc2cccc3cccnc23)c(O)c2ccccc12)c1ccccc1  inactive
4  COc1cc2c(cc1OCCCCN1CCN(C(=S)SCCC(C#N)(c3ccccc3)c3ccccc3)CC1)N=C[C@@H]1CCCN1C2=O    active
5  O=C(Nc1ncc(Cc2ccccc2)s1)c1ccc2c(c1)OCCCO2  inactive
6  O=C(CCCCCCN1CC(=O)N2[C@H](c3ccc(Br)cc3)c3[nH]c4ccccc4c3C[C@@H]2C1=O)NO  inactive
7     CCOC(=O)c1c(C)nc2ccccc2c1/C=C/c1cccs1  inactive
8  Cc1ccc(S(=O)(=O)OCCCOS(=O)(=O)c2ccc(C)cc2)cc1  inactive
9  COCCn1cc(-c2csc(-c3c[nH]c4ccc(Br)cc34)n2)c2cccnc21    active

====

system: MOLT-4 leukemia; assay: NCI-60 one-dose screen, 48 h (100 = growth as untreated, 0 = no growth, -100 = all killed); conditions: 10 µM unless noted
The panel holds about 83,000 compounds, 20% with a hit somewhere; the sample as a whole holds those more often.
# if measured growth < 20%: condition met  # else: condition not met

> print(dat)
                                    molecule    targetofassay                cat
 1  COc1cc2c(cc1OCCCCN1CCN(C(=S)SCCC(C#N)(c3ccccc3)c3ccccc3)CC1)N=C[C@@H]1CCCN1C2=O  MOLT-4 leukemia      condition met
 2  C=CCOC(=O)C1=C(C)N(CC)C(=O)NC1c1c(Cl)n(C)c2ccccc12 (stereo unspecified)  MOLT-4 leukemia  condition not met
 3  C=C(CNCCc1ccc(O)cc1)[C@@H]1CC[C@]2(CO)CC[C@]3(C)[C@H](CC[C@@H]4[C@@]5(C)CCC(=O)C(C)(C)[C@@H]5CC[C@]43C)[C@@H]12  MOLT-4 leukemia      condition met
 4  CCN(CC)CCN1C(=O)c2c(c(C)c3c(oc4ccc(O)cc43)c2C)C1=O  MOLT-4 leukemia      condition met
 5  COC(=O)C(Cc1ccccc1)NC(=O)c1ccc(NC(=O)c2[nH]c(C)c(Cl)c2Cl)c(OC(C)C)c1 (stereo unspecified)  MOLT-4 leukemia  condition not met
 6  O=C1/C=C/[C@@H](O)[C@@H]2C[C@@H](O)C[C@H]2/C=C/CCC[C@H](CCO)O1  MOLT-4 leukemia      condition met
 7            CCCCC#Cc1c(I)n(C)c(=O)[nH]c1=O  MOLT-4 leukemia      condition met
 8  CC1C(/C=N/NC(N)=S)C(C#N)(C#N)C1(C#N)C#N (stereo unspecified)  MOLT-4 leukemia  condition not met
 9  N#C/C(=C\c1ccc([N+](=O)[O-])cc1)n1nnc2cc(F)c(F)cc21  MOLT-4 leukemia      condition met
10  CCOC(=O)c1c(C)nc2c(c1N)CC(=O)N2Cc1ccc(OC)cc1  MOLT-4 leukemia  condition not met
11  C/C=C(\C)C(=O)N[C@H]1C(O)C[C@]2(C)C3CC[C@@]4(C)C(CC[C@@H]4C(C)N(C)C)C3CCC2C1O (stereo partly specified)  MOLT-4 leukemia      condition met

====

Tested on: MOLT-4 leukemia
Assay: NCI-60 one-dose screen, 48 h
Conditions: 10 µM unless noted
Description: Growth inhibition of the MOLT-4 human tumor cell line is measured as a screen for anti-cancer activity. Cells are grown in 96 well plates and exposed to the test compound for 48 hours. Compounds are tested at a single concentration, which is 10^-5 M for most compounds. The reported endpoint is percent growth (GI% or GIPRCNT), where numbers from 0 - 100% represent growth inhibition, and numbers from -100% - 0 represent cell death. For example, a value of 40 represents 60% growth inhibition. […]
The panel holds about 83,000 compounds, 20% with a hit somewhere; the sample as a whole holds those more often. Calls of active or inactive are those of the source. How the source made its calls: active means growth percent below 10; inactive means the rest.
Possible outcomes: active, inactive

> print(dat)
                               smilesstring       cat
1  C=CCN1C(=O)c2cccc3c(N4CCOCC4)ccc(c23)C1=O    active
2  COc1ccc(/C=C/c2c(C(=O)/C=C/c3ccccc3)c(C)nc3ccccc23)cc1    active
3  C/C(=N\O)c1ccc(NC(=O)CSc2nnc(-c3cc(-c4ccc(S(N)(=O)=O)cc4)nc4ccccc34)n2-c2ccccc2)cc1  inactive

====

Tested on: SK-MEL-28 melanoma
Experiment: NCI-60 one-dose screen, 48 h (100 = growth as untreated, 0 = no growth, -100 = all killed)
Conditions: 10 µM unless noted
Procedure: Growth inhibition of the SK-MEL-28 human tumor cell line is measured as a screen for anti-cancer activity. Cells are grown in 96 well plates and exposed to the test compound for 48 hours. Compounds are tested at a single concentration, which is 10^-5 M for most compounds. The reported endpoint is percent growth (GI% or GIPRCNT), where numbers from 0 - 100% represent growth inhibition, and numbers from -100% - 0 represent cell death. For example, a value of 40 represents 60% growth inhibition. […]
Compounds without any hit were thinned out: in the full panel of roughly 83,000, 20% have a hit. The source made the active and inactive calls. How the source made its calls: active means growth percent below 10; inactive means the rest.
measurementName: growth

> print(dat)
                                    compound     reportedvalue
 1  O=C(CCCCCCN1CC(=O)N2[C@H](c3ccc(Cl)cc3)c3[nH]c4ccccc4c3C[C@@H]2C1=O)NO  45.3% (inactive)
 2  C=C(CNCCc1ccc(O)cc1)[C@@H]1CC[C@]2(CO)CC[C@]3(C)[C@H](CC[C@@H]4[C@@]5(C)CCC(=O)C(C)(C)[C@@H]5CC[C@]43C)[C@@H]12   -10.8% (active)
 3  N#C/C(=C\c1ccc(-c2cccc(C(F)(F)F)c2)o1)c1ccccc1  98.4% (inactive)
 4  CCCCNC(=O)c1cc([N+](=O)[O-])cc(C2CCCCC2)c1O  34.3% (inactive)
 5    NC(=O)c1c(NC(=O)c2cccs2)sc2c1CCC(=O)C2  50.7% (inactive)
 6        CN(CCC(=O)c1ccccc1)CCC(=O)c1ccccc1   103% (inactive)
 7    Cc1ccc(S(=O)(=O)N2CCC(=O)c3ccccc32)cc1  80.3% (inactive)
 8      COc1cc(/C=N/Nc2ccc(Br)cc2)cc(OC)c1OC  82.1% (inactive)
 9        O=C(Nc1ncccc1OCc1ccccc1)NC1CCCCCC1  93.6% (inactive)
10  Nc1nc(NC(=O)Nc2ccc(C(=O)O)cc2)nn1-c1ccc(S(N)(=O)=O)cc1   100% (inactive)
11      Nc1nc(N)c(N=Nc2ccccc2)c(-c2ccccc2)n1  76.2% (inactive)
12  COC(=O)N1CC(Oc2ccccn2)C2CC1c1ccccc1O2 (configuration not stated)  94.8% (inactive)
